molecular target: T1, CD3 on Jurkat cells and on human T cells (human, UniProt P07766 23-207); test: flow cytometry on Jurkat cells
T1 construct: whole, on cells; also called CD3 end; CD3 antigen
T1 sequence (P07766 23-207): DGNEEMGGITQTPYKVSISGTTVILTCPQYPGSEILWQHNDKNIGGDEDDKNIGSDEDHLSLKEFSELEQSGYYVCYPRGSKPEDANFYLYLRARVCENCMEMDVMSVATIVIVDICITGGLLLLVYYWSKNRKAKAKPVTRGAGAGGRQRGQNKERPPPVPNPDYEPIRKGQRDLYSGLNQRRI
Please respond with True when measured EC50 is strictly beneath 2 nM, and with False in all other cases.

BINDER	GROUP
CD3 Ab15 (antibody, human IgG1, kappa, V domains shown, also called humanized anti-CD3 monoclonal antibody) VH: EVQLVESGGGLVQPGGSLRLSCAASGFTFNTYAMNWVRQAPGKGLEWVARIRSKYNNYATYYADSVKDRFTISRDDSKNILYLQMNSLKTEDTAMYYCVRHGNFGNSYVSWFAYWGQGTLVTVSA VL: QAVVTQEPSLTVSPGGTVTLTCRSSTGAVTTSNYANWVQEKPGQAPRGLIGGTNKRAPWVPARFSGSLLGDKAALTLSGAQTEDEAEYYCALWYSNLWVFGGGTKLTVLR	True
CD3 Ab13 (antibody, human IgG1, kappa, V domains shown, also called humanized anti-CD3 monoclonal antibody) VH: EVQLVESGGGLVQPGGSLRLSCAASGFTFNTYAMNWVRQAPGKGLEWVARIRSKYNNYATYYADSVKDRFTISRDDSKNILYLQMNSLKTEDTAMYYCVRHGNFGNSYVSWFAYWGQGTLVTVSA VL: QAVVTQEPSLTVSPGGTVTLTCRSSTGAVTTSNYANWVQQKPGQAPRGLIGGTNKRAPWTPARFSGSLLGGKAALTITGAQTEDEAEYYCALWYSNLWVFGGGTKLTVLR	False
CD3 Ab03 (antibody, human IgG1, kappa, V domains shown, also called humanized anti-CD3 monoclonal antibody) VH: EVQLVESGGGLVQPGGSLRLSCAASGFTFNTYAMNWVRQAPGKGLEWVARIRSKYNNYATYYADSVKDRFTISRDDSKNSLYLQMNSLKTEDTAVYYCVRHGNFGNSYVSWFAYWGQGTLVTVSA VL: QAVVTQEPSLTVSPGGTVTLTCRSSTGAVTTSNYANWVQQKPGQAPRGLIGGTNKRAPWTPARFSGSLLGGKAALTITGAQTEDEAEYYCALWYSNLWVFGGGTKLTVLR	False
CD3 Ab06 (antibody, human IgG1, kappa, V domains shown, also called humanized anti-CD3 monoclonal antibody) VH: EVQLVESGGGLVQPGGSLRLSCAASGFTFNTYAMNWVRQAPGKGLEWVARIRSKYNNYATYYADSVKDRFTISRDDSKNILYLQMNSLKTEDTAVYYCVRHGNFGNSYVSWFAYWGQGTLVTVSA VL: QAVVTQEPSLTVSPGGTVTLTCRSSTGAVTTSNYANWVQQKPGQAPRGLIGGTNKRAPWTPARFSGSLLGGKAALTLSGAQPEDEAEYYCALWYSNLWVFGGGTKLTVLR	False

Attention now turns to another entry.
Qu. In plain terms, does CD3 Ab05 (antibody, human IgG1, kappa, V domains shown, also called humanized anti-CD3 monoclonal antibody) VH: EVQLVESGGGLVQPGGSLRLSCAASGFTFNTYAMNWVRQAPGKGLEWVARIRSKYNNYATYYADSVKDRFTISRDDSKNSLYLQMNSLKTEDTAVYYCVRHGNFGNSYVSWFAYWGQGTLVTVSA VL: QAVVTQEPSLTVSPGGTVTLTCRSSTGAVTTSNYANWVQEKPGQAPRGLIGGTNKRAPWVPARFSGSLLGDKAALTLSGAQTEDEAEYYCALWYSNLWVFGGGTKLTVLR come in under 2 nM for EC50?
Ans. True
